B1: PhoQ; a variant is named by its letters at X, in order, P23837 (parent)
chain: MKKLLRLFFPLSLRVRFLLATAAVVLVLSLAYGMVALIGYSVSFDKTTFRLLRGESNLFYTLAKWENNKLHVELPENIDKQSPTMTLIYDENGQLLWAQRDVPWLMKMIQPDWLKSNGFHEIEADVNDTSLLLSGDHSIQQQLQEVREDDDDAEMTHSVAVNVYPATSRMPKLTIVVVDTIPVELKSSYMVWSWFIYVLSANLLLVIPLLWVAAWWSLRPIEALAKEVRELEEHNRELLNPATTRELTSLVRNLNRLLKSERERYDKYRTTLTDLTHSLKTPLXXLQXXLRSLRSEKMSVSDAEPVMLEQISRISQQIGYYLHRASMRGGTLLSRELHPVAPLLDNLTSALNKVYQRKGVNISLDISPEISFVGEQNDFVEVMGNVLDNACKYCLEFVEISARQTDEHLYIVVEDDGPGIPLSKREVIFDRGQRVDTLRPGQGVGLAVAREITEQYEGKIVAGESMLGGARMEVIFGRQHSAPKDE

# Variants of: B1
# assay-comment: enrichment ratio after two sorts for PhoP signalling (ratio (wild type AVST 3.29)); higher = more functional
# run-conditions: with PhoP (E. coli)
Over roughly 140,000 sequences, “enrichment ratio after two sorts for PhoP signalling” has its median near 0; the highest 2% begin near 11. Only a selection was taken, and the highest values are over-represented in it overall.
result-type: enrichment ratio

| variant-label | enrichment ratio |
| --- | --- |
| WQLG | ≤ 0.25 |

What measured enrichment ratio goes with KYIG ? ≤ 0.25

Quick check: enrichment ratio of IMDM ? ≤ 0.25

Entry ADHC : reported enrichment ratio = ? ≤ 0.25

Recorded enrichment ratio for GKAG , please? ≤ 0.25

Given the variant NGLG , what is its reported enrichment ratio? ≤ 0.25
